test system: WPMY1-TUBA1B-RELA; assay: phenotypically active (imaging signature differs from DMSO and reproducible) at any of 0.3-9 uM (binary (1 = active, 0 = inactive)); higher = active; conditions: treatment time: 24 h
Your response should consist of one outcome taken from active, inactive

The examples below pair each entry with its known result.
1. CN(C)CCCC1(c2ccc(F)cc2)OCc2cc(C#N)ccc21 (stereo not drawn): inactive
2. O=C(COc1cccc2c(=O)[nH]ccc12)c1ccccc1: inactive
3. CC(C)n1nc(-c2cc3cc(O)ccc3[nH]2)c2c(N)ncnc21: active
4. Cc1ccc(N(CC2=NCCN2)c2cccc(O)c2)cc1: inactive
5. C[C@H]1[C@H](C)CC[C@]2(C(=O)O[C@@H]3O[C@H](CO[C@@H]4O[C@H](CO)[C@@H](O[C@@H]5O[C@@H](C)[C@H](O)[C@@H](O)[C@H]5O)[C@H](O)[C@H]4O)[C@@H](O)[C@H](O)[C@H]3O)CC[C@]3(C)C(=CC[C@@H]4[C@@]5(C)C[C@@H](O)[C@H](O)[C@@](C)(CO)[C@@H]5CC[C@]43C)[C@H]12 [Asiaticoside]: inactive
6. COc1cc2nc3occc3c(OC)c2cc1OC: inactive
7. Nc1ccn([C@@H]2O[C@H](CO)[C@@H](O)C2(F)F)c(=O)n1: active

Let us examine a further case.
Qu. Assay outcome for `COc1c(C)cnc(Cn2cnc3c(Cl)nc(N)nc32)c1C` : what was it?
Ans. active
